Assay: Cytotoxicity against Homo sapiens (human) H460 cells by CCK8-based colorimetric analysis
Assay type: functional, cell-based
Conditions: NCI-H460
measure_name: pIC50
One number for each entry, as −log10 of the molar value.

[ask] What value of pIC50 has been recorded for this entry: CCOc1ccc(/C=C2\CN(Cc3ccccc3)C/C(=C\c3ccc(OCC)cc3)C2=O)cc1
[reply] 5.26
